The reported measurements were obtained from patent EP4122499A1.

Reported pIC50 (Activity) by item:
- measured.target: Human recombinant FAP (Homo sapiens, UniProt Q12884)
- Sequence (Q12884 1-760): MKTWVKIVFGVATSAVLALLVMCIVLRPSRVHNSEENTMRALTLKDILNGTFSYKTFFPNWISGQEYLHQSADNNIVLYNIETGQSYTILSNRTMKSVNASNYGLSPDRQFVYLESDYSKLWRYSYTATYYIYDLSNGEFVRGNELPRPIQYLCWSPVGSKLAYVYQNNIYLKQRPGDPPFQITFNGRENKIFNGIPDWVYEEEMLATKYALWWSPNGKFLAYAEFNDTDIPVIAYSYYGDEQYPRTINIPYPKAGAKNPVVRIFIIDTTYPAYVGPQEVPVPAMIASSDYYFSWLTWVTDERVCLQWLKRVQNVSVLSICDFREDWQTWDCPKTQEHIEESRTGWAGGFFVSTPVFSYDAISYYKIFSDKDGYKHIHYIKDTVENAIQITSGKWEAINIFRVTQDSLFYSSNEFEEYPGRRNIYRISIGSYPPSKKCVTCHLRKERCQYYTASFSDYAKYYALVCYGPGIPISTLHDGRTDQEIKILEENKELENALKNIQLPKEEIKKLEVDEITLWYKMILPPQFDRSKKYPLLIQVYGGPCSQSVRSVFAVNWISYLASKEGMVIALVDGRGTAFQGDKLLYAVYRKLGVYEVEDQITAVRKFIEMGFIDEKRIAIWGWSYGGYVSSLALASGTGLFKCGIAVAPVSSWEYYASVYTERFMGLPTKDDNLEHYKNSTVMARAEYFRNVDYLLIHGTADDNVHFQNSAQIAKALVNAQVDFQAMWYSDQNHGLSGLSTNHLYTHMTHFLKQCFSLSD
- protocol.description: FRET-based FAP protease activity assay (human)
- Type: biochemical
- Design: purchased R&D systems 3715-SE
- measurement.setup: FRET-peptide substrate, 37°C
// no unit, no text: just the number

Request: Return value of pIC50 (Activity) for input N#C[C@@H]1CC(F)(F)CN1C(=O)CNC(=O)c1ccnc2ccc(-c3ccc(C(=O)NCCCNC(=O)CN4CCN(CC(=O)O)CCN(CC(=O)O)CCN(CC(=O)O)CC4)cc3)cc12 , no commentary.
Response: 9.2

Request: Give the value of pIC50 (Activity) reported for the following: O=C(O)CN1CCN(CC(=O)O)CCN(CC(=O)N2CCN(CCNC(=O)c3ccc(-c4ccc5nccc(C(=O)NCC(=O)N6CCC[C@H]6C(=O)c6nc7ccccc7o6)c5c4)cn3)CC2)CCN(CC(=O)O)CC1 [drawing 361]
Response: 8.4

Request: Please look at this compound and report its pIC50 (Activity): N#C[C@@H]1CC(F)(F)CN1C(=O)CNC(=O)c1ccnc2ccc(-c3ccc(C(=O)NCCCNC(=O)CN4CCN(CC(=O)O)CCN(CC(=O)O)CCN(CC(=O)O)CC4)nc3)cc12
Response: 9.1

Request: Please give measured pIC50 (Activity) of the following entry: N#C[C@@H]1CC(F)(F)CN1C(=O)CNC(=O)c1cc[n+]([O-])c2ccc(OCCCN3CCN(C(=O)CN4CCN(CC(=O)O)CCN(CC(=O)O)CCN(CC(=O)O)CC4)CC3)cc12
Response: 9

Request: For the compound O=C(O)CN1CCN(CC(=O)O)CCN(CC(=O)N2CCN(CCNC(=O)c3ccc(-c4ccc5nccc(C(=O)NCC(=O)N6C[C@@H](F)C[C@H]6C(=O)c6nc7ccccc7o6)c5c4)cc3)CC2)CCN(CC(=O)O)CC1 [drawing 360] , give its measured pIC50 (Activity) value.
Response: 8.5
